meta.source: PubChem BioAssay (NCATS)

# procedure summary: Cell Viability - LYMP2-023 (AID 975);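 note: cells exposed to compound for 24 hours at 37 °C; nearly all actives have a fitted effect of over 55% in size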
# condition description: LYMP2-023 lymphoblastoid cell viability; series mostly up to 92.2 µM
Records with an inconclusive call do not appear. The source made the active and inactive calls. Calls come from the whole dose curve; as a rule, active = well fitted cell-killing curve with a large enough effect; inconclusive = small, poorly fitted or top-dose-only effect; inactive = flat fitted curve, though single readings scatter.
Valid outcomes are listed here; reply with one: Y for active, N for inactive

(Q) I would be grateful if you could indicate the recorded call for "CCSC(=O)Cl" .
(A) N

(Q) I would be grateful if you could indicate the recorded call for CC(O)CCl (configuration not stated) .
(A) N

(Q) I would be grateful if you could indicate the recorded call for "O=C1C(Cl)=C(Cl)C(=O)C(Cl)=C1Cl" .
(A) Y

(Q) I would be grateful if you could indicate the recorded call for "ClC(Cl)(Cl)c1ccccc1" .
(A) N

(Q) I would be grateful if you could indicate the recorded call for "C=C(C)C#N" .
(A) N

(Q) I would be grateful if you could indicate the recorded call for "CCCSC(=O)Cl" .
(A) N

(Q) I would be grateful if you could indicate the recorded call for OCC(Br)CBr (configuration not stated) .
(A) N

(Q) I would be grateful if you could indicate the recorded call for "Nc1ccc(Br)cc1" .
(A) N

(Q) I would be grateful if you could indicate the recorded call for "C=CCc1ccc(OC)cc1" .
(A) N

(Q) I would be grateful if you could indicate the recorded call for "CNC(=O)O/N=C/C(C)(C)SC" .
(A) N

(Q) I would be grateful if you could indicate the recorded call for "CCCCCCCCCc1ccc(O)cc1" .
(A) N

(Q) I would be grateful if you could indicate the recorded call for "C=C(Cl)Cl" .
(A) N

(Q) I would be grateful if you could indicate the recorded call for "CCCCOC(=O)c1ccccc1C(=O)OCCCC" .
(A) N

(Q) I would be grateful if you could indicate the recorded call for "COc1ccc(N)cc1" .
(A) N

(Q) I would be grateful if you could indicate the recorded call for "c1ccc(OP(Oc2ccccc2)Oc2ccccc2)cc1" .
(A) N

(Q) I would be grateful if you could indicate the recorded call for ClC1=C(Cl)C2(Cl)C3C(Cl)C=CC3C1(Cl)C2(Cl)Cl (configuration not stated) .
(A) N

(Q) I would be grateful if you could indicate the recorded call for "C/C=C/c1ccc2c(c1)OCO2" .
(A) N

(Q) I would be grateful if you could indicate the recorded call for "CCNc1nc(Cl)nc(NC(C)C)n1" .
(A) N

(Q) I would be grateful if you could indicate the recorded call for "C=CCOC(=O)c1ccccc1N" .
(A) N

(Q) I would be grateful if you could indicate the recorded call for "Clc1nc(Cl)nc(Cl)n1" .
(A) N

(Q) I would be grateful if you could indicate the recorded call for "COC1=CC(=O)O[C@@H](/C=C/c2ccc3c(c2)OCO3)C1" .
(A) N

(Q) I would be grateful if you could indicate the recorded call for C=C(C)C(=O)OCC1CO1 (configuration not stated) .
(A) N

(Q) I would be grateful if you could indicate the recorded call for "Clc1cc(Cl)c(-c2cc(Cl)c(Cl)cc2Cl)cc1Cl" .
(A) N

(Q) I would be grateful if you could indicate the recorded call for O=S1OCC2C(CO1)C1(Cl)C(Cl)=C(Cl)C2(Cl)C1(Cl)Cl (configuration not stated) .
(A) N

(Q) I would be grateful if you could indicate the recorded call for "CCCOC(=O)c1ccccc1C(=O)OCCC" .
(A) N

(Q) I would be grateful if you could indicate the recorded call for "COC(=O)NC(=S)Nc1ccccc1NC(=S)NC(=O)OC" .
(A) N

(Q) I would be grateful if you could indicate the recorded call for "COP(=S)(OC)Oc1ccc([N+](=O)[O-])cc1" .
(A) N

(Q) I would be grateful if you could indicate the recorded call for "CC(C)(c1ccccc1)c1ccc(O)cc1" .
(A) N

(Q) I would be grateful if you could indicate the recorded call for "Clc1ccc2ccccc2c1" .
(A) N

(Q) I would be grateful if you could indicate the recorded call for "Oc1ccc(Cl)cc1Cl" .
(A) N

(Q) I would be grateful if you could indicate the recorded call for "c1ccc(N=Nc2ccccc2)cc1" .
(A) N

(Q) I would be grateful if you could indicate the recorded call for "CCC[CH2][Sn]([Cl])([Cl])[Cl]" .
(A) N
